Test: qHTS for Inhibitors of human tyrosyl-DNA phosphodiesterase 1 (TDP1): qHTS in cells in absence of CPT; further: nearly all actives have a fitted effect of over 55% in size
Details: DT40 Tdp1-/- hTDP1 cells, no CPT, ATP luminescence, 48 h
Hit rate of the full screen: of about 420,000 compounds, about 64,000 (15%) were called active. Not shown: some 27% with an inconclusive outcome. The call rests on the fitted dose curve; in most records, active means well fitted inhibition curve with a large enough effect; inconclusive means small, poorly fitted or top-dose-only effect; inactive means flat fitted curve, though single readings scatter. The list is a sample of the results.
Outcome field: choose from active, inactive

Recorded test call requested for `Cc1ccc(NC(=O)NC2CCCCC2)cc1S(=O)(=O)N1CCOCC1`
inactive

Recorded test call requested for O=C(OCC1OC(Oc2ccc(O)cc2)C(O)C(O)C1O)c1ccccc1 (configuration not stated)
inactive

Recorded test call requested for `COc1ccc(NC(=O)c2ccccc2CC[N+](=O)[O-])cc1`
inactive

Recorded test call requested for `CCOc1cccc(NC(=O)CC#N)c1`
inactive

Recorded test call requested for `CN(C)/C=C/c1c(C#N)c(=O)ncn1Cc1ccccc1`
inactive

====

Assay: qHTS for Inhibitors of human tyrosyl-DNA phosphodiesterase 1 (TDP1): qHTS in cells in absence of CPT; further: nearly all actives have a fitted effect of over 55% in size
Conditions: DT40 Tdp1-/- hTDP1 cells, no CPT, ATP luminescence, 48 h
Out of some 420,000 compounds screened, about 64,000 (15%) were called active. Inconclusive results (about 27%) are left out. Calls come from the whole dose curve; as a rule, active = well fitted inhibition curve with a large enough effect; inconclusive = small, poorly fitted or top-dose-only effect; inactive = flat fitted curve, though single readings scatter. Only a sample is shown.
Outcome field: choose from active, inactive

As a guide, the following entries are already answered.
Recorded test call requested for `COCC(=O)N1CCC2(CCCN(c3ccccc3)C2)CC1`
inactive

Recorded test call requested for `CC(C)c1ccc(NC(=O)c2cc(S(=O)(=O)N3CCc4ccccc4C3)ccc2F)cc1`
inactive

Recorded test call requested for `O=C(NCc1cn2ccsc2n1)Nc1ccc(Cl)cc1`
inactive

Recorded test call requested for CCC(C)NCC(=O)Nc1ccc([N+](=O)[O-])cc1C(=O)Nc1ccccc1F (stereo not given)
inactive

Recorded test call requested for `Cc1cc(C)cc(NC(=O)CN2C(=O)c3ccccc3C2=O)c1`
inactive

Recorded test call requested for `Cc1cc(C)c(S(=O)(=O)c2ccc(F)cc2C)c(=O)[nH]1`
inactive

Continuing:
Recorded test call requested for `O=C(CN1CCN(c2ccccn2)CC1)NCc1cccs1`
inactive

Recorded test call requested for CCCNC(=O)C1CC(=O)N(c2ccc(OCC(=O)Nc3cccc(C)c3C)cc2)C1 (stereo not given)
inactive

Recorded test call requested for `CCOc1ccc(CCNC(=O)COC(=O)c2ccc(C)c(S(=O)(=O)N3CCOCC3)c2)cc1OCC`
inactive

====

Assay: qHTS for Inhibitors of human tyrosyl-DNA phosphodiesterase 1 (TDP1): qHTS in cells in absence of CPT; further: nearly all actives have a fitted effect of over 55% in size
Conditions: DT40 Tdp1-/- hTDP1 cells, no CPT, ATP luminescence, 48 h
In all, about 420,000 compounds went through this assay and about 64,000 (15%) were called active. Another 27% or so got no clear call; they are omitted. Calls come from the whole dose curve; as a rule, active = well fitted inhibition curve with a large enough effect; inconclusive = small, poorly fitted or top-dose-only effect; inactive = flat fitted curve, though single readings scatter. These entries were drawn from the full list.
Outcome field: choose from true for active, false for inactive

As a guide, the following entries are already answered.
Recorded test call requested for `Cc1csc(=O)n1CCC(=O)OCC(=O)NNC(=O)c1ccc(Br)cc1`
false

Recorded test call requested for CCOC(=O)CN1C(=O)C(O)(CC(=O)c2ccccn2)c2ccccc21 (centres undefined)
true

Recorded test call requested for `COc1ccccc1OCC(=O)O/N=C(\N)c1ccccn1`
false

Let us examine a further case.
Recorded test call requested for `Cc1cc(NC(=O)COC(=O)/C=C/c2ccc(C)o2)no1`
false
